The values you see were collected from PubChem BioAssay.

assay.target: Lethal factor (Bacillus anthracis) (UniProt P15917)
Sequence (P15917 whole entry, looked up): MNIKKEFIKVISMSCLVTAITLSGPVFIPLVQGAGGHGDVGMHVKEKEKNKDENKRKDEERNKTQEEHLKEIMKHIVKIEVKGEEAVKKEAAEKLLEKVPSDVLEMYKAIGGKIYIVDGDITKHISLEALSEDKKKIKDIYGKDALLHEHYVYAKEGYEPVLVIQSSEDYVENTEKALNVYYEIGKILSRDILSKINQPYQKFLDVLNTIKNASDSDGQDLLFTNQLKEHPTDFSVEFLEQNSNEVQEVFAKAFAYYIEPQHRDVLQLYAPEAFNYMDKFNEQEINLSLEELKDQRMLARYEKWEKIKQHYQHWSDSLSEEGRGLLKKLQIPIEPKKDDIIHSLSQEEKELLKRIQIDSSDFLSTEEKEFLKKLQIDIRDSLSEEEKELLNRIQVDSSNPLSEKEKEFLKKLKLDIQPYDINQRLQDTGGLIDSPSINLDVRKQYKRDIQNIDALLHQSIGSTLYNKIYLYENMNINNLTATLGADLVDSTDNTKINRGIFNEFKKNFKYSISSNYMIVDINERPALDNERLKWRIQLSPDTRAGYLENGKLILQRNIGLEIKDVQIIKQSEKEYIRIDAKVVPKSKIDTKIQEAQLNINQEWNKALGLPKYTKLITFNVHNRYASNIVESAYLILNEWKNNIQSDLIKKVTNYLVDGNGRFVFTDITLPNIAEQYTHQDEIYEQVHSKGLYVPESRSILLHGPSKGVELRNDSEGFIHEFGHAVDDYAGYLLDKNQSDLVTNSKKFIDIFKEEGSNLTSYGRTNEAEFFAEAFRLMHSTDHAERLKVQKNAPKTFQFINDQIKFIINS
assay.protocol: Lethal factor protease inhibitors, Bacillus anthracis, multiplex microsphere cleavage assay, validation set (AID 588461)
recorded.conditions: flow cytometry, at 10 µM, active compounds read high
Kindly state inhibition for each of the entries shown.
Form entry: value (%) — number only.

INPUT: What inhibition value was documented for this molecule, CN(C)c1ccc(Nc2c3c4c(cccc4n(C)c2=O)C(=O)c2ccccc2-3)cc1 ?
OUTPUT: -18.1

INPUT: What inhibition value was documented for this molecule, Cc1ccc(C(=O)COC(=O)c2cnccn2)cc1[N+](=O)[O-] ?
OUTPUT: -5.2

INPUT: What inhibition value was documented for this molecule, COC(=O)c1[nH]c(=O)c2ccccc2c1O ?
OUTPUT: -1.7

INPUT: What inhibition value was documented for this molecule, O=C1NC2(Nc3ccccc31)C(=O)Nc1ccc(Br)cc12 (stereo not given) ?
OUTPUT: 6.8

INPUT: What inhibition value was documented for this molecule, CCCCCCCC(=O)OCC(=O)[C@@]1(O)CC[C@H]2[C@@H]3CCC4=CC(=O)CC[C@]4(C)[C@H]3[C@@H](O)C[C@@]21C ?
OUTPUT: 4.7

---

assay.target: ATP-binding cassette sub-family B member 6 (Homo sapiens) (UniProt Q9NP58)
Sequence (Q9NP58 whole entry, looked up): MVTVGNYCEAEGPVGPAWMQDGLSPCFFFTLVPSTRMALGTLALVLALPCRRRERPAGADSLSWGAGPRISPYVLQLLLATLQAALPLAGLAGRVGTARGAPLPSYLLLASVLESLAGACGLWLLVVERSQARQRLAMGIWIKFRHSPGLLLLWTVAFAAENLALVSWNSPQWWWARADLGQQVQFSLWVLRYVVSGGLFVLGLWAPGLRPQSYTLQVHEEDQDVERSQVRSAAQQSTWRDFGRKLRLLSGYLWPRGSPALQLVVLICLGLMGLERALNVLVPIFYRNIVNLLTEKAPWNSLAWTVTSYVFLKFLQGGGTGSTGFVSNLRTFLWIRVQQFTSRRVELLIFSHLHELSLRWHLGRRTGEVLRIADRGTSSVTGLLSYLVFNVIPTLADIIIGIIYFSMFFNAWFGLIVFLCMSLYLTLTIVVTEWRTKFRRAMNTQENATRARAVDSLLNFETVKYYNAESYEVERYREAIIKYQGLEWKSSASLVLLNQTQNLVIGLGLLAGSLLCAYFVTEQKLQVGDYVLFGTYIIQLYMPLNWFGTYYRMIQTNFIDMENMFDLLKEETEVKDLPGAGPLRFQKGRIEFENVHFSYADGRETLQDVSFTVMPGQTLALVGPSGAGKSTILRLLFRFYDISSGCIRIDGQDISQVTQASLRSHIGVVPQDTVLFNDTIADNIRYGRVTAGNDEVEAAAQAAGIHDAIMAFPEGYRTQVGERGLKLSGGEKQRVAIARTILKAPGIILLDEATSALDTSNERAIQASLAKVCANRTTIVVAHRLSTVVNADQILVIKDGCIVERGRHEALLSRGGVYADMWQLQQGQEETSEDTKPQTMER
assay.protocol: ABCB6 transporter inhibitors, pilot screen, K562-ABCB6 cells, flow cytometry, validation set (AID 588550);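 also: 0% = DMSO wells and 100% = benzethonium chloride 70 µM positive control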
recorded.conditions: K562-ABCB6 porphyrin accumulation, 1 h, at 10 µM, active compounds read high
Kindly state inhibition for each of the entries shown.
Form entry: value (%) — number only.

INPUT: Missing value: inhibition, ATP-binding cassette sub-family B member 6 (Homo sapiens) (UniProt Q9NP58), entry c1ccc2c3c([nH]c2c1)CNCC3 . Fill in?
OUTPUT: -82

INPUT: Missing value: inhibition, ATP-binding cassette sub-family B member 6 (Homo sapiens) (UniProt Q9NP58), entry CC(C)C[C@H]1C(=O)N2CCCC2[C@]2(O)O[C@](NC(=O)[C@@H]3C=C4c5cccc6[nH]cc(c56)CC4N(C)C3)(C(C)C)C(=O)N12 (some centres not stated) . Fill in?
OUTPUT: 10

INPUT: Missing value: inhibition, ATP-binding cassette sub-family B member 6 (Homo sapiens) (UniProt Q9NP58), entry CCN1CC2(COC(=O)c3ccccc3N)CCC(OC)C34C5CC6C(OC)CC(O)(C5C6OC)C(O)(C(OC)C23)C14 (configuration not stated) . Fill in?
OUTPUT: 8

INPUT: Missing value: inhibition, ATP-binding cassette sub-family B member 6 (Homo sapiens) (UniProt Q9NP58), entry CC[C@]12C=CCN3CCC4(c5cc(Br)c(OC)cc5N(C)C4[C@@](O)(C(=O)OC)[C@@H]1OC(C)=O)C32 (some centres not stated) . Fill in?
OUTPUT: 10

INPUT: Missing value: inhibition, ATP-binding cassette sub-family B member 6 (Homo sapiens) (UniProt Q9NP58), entry C[C@]12CC[C@@H](O)C[C@@H]1CC[C@@H]1[C@@H]2CC[C@]2(C)C(=O)CC[C@@H]12 . Fill in?
OUTPUT: 0

INPUT: Missing value: inhibition, ATP-binding cassette sub-family B member 6 (Homo sapiens) (UniProt Q9NP58), entry O=c1[nH]c2ccccc2n1C1CCN(CCCC(c2ccc(F)cc2)c2ccc(F)cc2)CC1 . Fill in?
OUTPUT: 6

INPUT: Missing value: inhibition, ATP-binding cassette sub-family B member 6 (Homo sapiens) (UniProt Q9NP58), entry CN1C(=O)N(C)C(=O)C2(Cc3ccccc3N3CCOCC32)C1=O (configuration not stated) . Fill in?
OUTPUT: 5

INPUT: Missing value: inhibition, ATP-binding cassette sub-family B member 6 (Homo sapiens) (UniProt Q9NP58), entry CCOC(=O)C1=C(C)OC(N)=C(C(=O)OCC)[C@@]12C(=O)N(CC(N)=O)c1ccccc12 . Fill in?
OUTPUT: 6

INPUT: Missing value: inhibition, ATP-binding cassette sub-family B member 6 (Homo sapiens) (UniProt Q9NP58), entry C[C@]12CCC(=O)C=C1CCC1C2CC[C@@]2(C)C1CC[C@@]2(O)CC#N (some centres not stated) . Fill in?
OUTPUT: 8

INPUT: Missing value: inhibition, ATP-binding cassette sub-family B member 6 (Homo sapiens) (UniProt Q9NP58), entry COc1cccc(Oc2c(C)oc3cc(OC(=O)N(C)C)ccc3c2=O)c1 . Fill in?
OUTPUT: 23

INPUT: Missing value: inhibition, ATP-binding cassette sub-family B member 6 (Homo sapiens) (UniProt Q9NP58), entry CC(Cc1ccccc1)NCC(=O)Nc1cc(N(C)C)nc2ccccc12 (configuration not stated) . Fill in?
OUTPUT: 8

INPUT: Missing value: inhibition, ATP-binding cassette sub-family B member 6 (Homo sapiens) (UniProt Q9NP58), entry CN1CC[C@@]23CCCC[C@@H]2[C@@H]1Cc1ccc(O)cc13 . Fill in?
OUTPUT: 2
